The reported numbers originate from patent US11987648B2.

Each item that follows carries a reported EC50.
- tested.on: SST2 (Homo sapiens)
- assay.notes: Hit Hunter cAMP XS+ assay, SST2 activation via Gi (reduction of forskolin-stimulated cAMP)
- Format: cell-based
- condition: reduction of forskolin-stimulated cAMP; 4-parameter logistic fit; read-out: SST2 pEC50 (converted)
*1 amine or outer side, *2 acyl side, *3 side chain or, on linkers, in order; H or OH if unused. Where a SMILES comes first, the peptide text is derived from it. Side-chain parts run from the residue outwards. [ ]: non-standard residue; d: D form. The star is where a group is joined. Ala(piperidin-4-yl) = O=C([C@H](CC1CCN([*:3])CC1)N[*:1])[*:2]; dTrp(4-OMe) = COc1cccc2[nH]cc(C[C@@H](N)C(=O)O)c12; X2 = O=C([C@@H]1C[C@@H](Oc2ccncc2)CN1[*:1])[*:2]; Ala(piperazin-1-yl) = N[C@@H](CN1CCNCC1)C(=O)O; Phe(4-Cl) = N[C@@H](Cc1ccc(Cl)cc1)C(=O)O; Morpholine(3S-CO) = O=C(O)[C@@H]1COCCN1; Ethylenediamine = C(CN[*:2])N[*:1]; Hyp = O=C(O)[C@@H]1C[C@@H](O)CN1; hPhe = N[C@@H](CCc1ccccc1)C(=O)O; 3Pal = N[C@@H](Cc1cccnc1)C(=O)O; Tic = O=C(O)[C@@H]1Cc2ccccc2CN1; CO = O=C([*:1])[*:2]; Bn = c1ccc(C*)cc1
Lab book: enter the figure in nM, no units written.

1) COc1cccc2[nH]cc(C[C@H]3NC(=O)[C@H](CCc4ccccc4)NC(=O)[C@@H]4COCCN4C(=O)[C@@H]4Cc5ccccc5CN4C(=O)[C@H](Cc4ccc(OCc5ccccc5)cc4)NC(=O)[C@H](CC4CCNCC4)NC3=O)c12 [Example 46] (cyclo([Tic][Morpholine(3S-CO)][hPhe][dTrp(4-OMe)][Ala(piperidin-4-yl)]Y(Bn))) : 39.8

Given item O=C1N[C@@H](Cc2cccnc2)C(=O)N2C[C@H](Oc3ccncc3)C[C@H]2C(=O)N[C@@H](CCc2ccccc2)C(=O)N[C@H](Cc2c[nH]c3ccccc23)C(=O)N[C@@H](CC2CCNCC2)C(=O)N[C@H]1Cc1ccc(OCc2ccccc2)cc1 [Example 22] (cyclo([3Pal][X2][hPhe][dW][Ala(piperidin-4-yl)]Y(Bn))) , the value recorded as its EC50 is 79.4

Given item NCCNC(=O)O[C@@H]1C[C@H]2C(=O)N[C@@H](CCc3ccccc3)C(=O)N[C@H](Cc3c[nH]c4ccccc34)C(=O)N[C@@H](CN3CCNCC3)C(=O)N[C@@H](Cc3ccc(OCc4ccccc4)cc3)C(=O)N[C@@H](Cc3ccc(Cl)cc3)C(=O)N2C1 [Example 51] (cyclo([Hyp]([CO-Ethylenediamine])[hPhe][dW][Ala(piperazin-1-yl)]Y(Bn)[Phe(4-Cl)])) , the value recorded as its EC50 is 5.01

----------
- tested.on: SST2 (Homo sapiens)
- assay.notes: Hit Hunter cAMP XS+ assay, SST2 activation via Gi (reduction of forskolin-stimulated cAMP)
- Assay type: cell-based
- condition: reduction of forskolin-stimulated cAMP; 4-parameter logistic fit; read-out: SST2 pEC50 (converted)
- Description: A Hit Hunter® cAMP XS+ assay was used to monitor activation of the SST2 and SST5 via the Gi G protein. Cells were pre-stimulated with forskolin to elicit a cAMP response and the potency and efficacy of somatostatin agonists to reduce cAMP was measured. […] Signal was detected through incubation with 20 μL cAMP XS+ED/CL lysis cocktail ([…]; RT) followed by incubation with […] cAMP XS+EA reagent (180 min; RT). […]
*1 amine or outer side, *2 acyl side, *3 side chain or, on linkers, in order; H or OH if unused. Where a SMILES comes first, the peptide text is derived from it. Side-chain parts run from the residue outwards. [ ]: non-standard residue; d: D form. The star is where a group is joined. Ala(piperidin-4-yl) = O=C([C@H](CC1CCN([*:3])CC1)N[*:1])[*:2]; Phe(3-Br) = N[C@@H](Cc1cccc(Br)c1)C(=O)O; Ethylenediamine = C(CN[*:2])N[*:1]; Hyp = O=C(O)[C@@H]1C[C@@H](O)CN1; hPhe = N[C@@H](CCc1ccccc1)C(=O)O; 3Pal = N[C@@H](Cc1cccnc1)C(=O)O; Cyclohexylmethyl = C1CCC(C*)CC1; Phg = N[C@H](C(=O)O)c1ccccc1; CO = O=C([*:1])[*:2]; Bn = c1ccc(C*)cc1
quantity.measured: EC50 (nM)
Lab book: enter the figure in nM, no units written.

1) COc1ccc(C[C@@H]2NC(=O)[C@H](Cc3ccc(OCc4ccccc4)cc3)NC(=O)[C@H](CC3CCNCC3)NC(=O)[C@@H](Cc3c[nH]c4ccccc34)NC(=O)[C@H](CCc3ccccc3)NC(=O)[C@@H]3C[C@@H](OC(=O)NCCN)CN3C2=O)cc1 [Example 43] (cyclo([Hyp]([CO-Ethylenediamine])[hPhe][dW][Ala(piperidin-4-yl)]Y(Bn)Y(Me))) : 31.6
2) NCCNC(=O)O[C@@H]1C[C@H]2C(=O)N[C@@H](CCc3ccccc3)C(=O)N[C@H](Cc3c[nH]c4ccccc34)C(=O)N[C@@H](CC3CCNCC3)C(=O)N[C@@H](Cc3ccc(OCC4CCCCC4)cc3)C(=O)N[C@@H](Cc3cccnc3)C(=O)N2C1 [Example 54] (cyclo([3Pal][Hyp]([CO-Ethylenediamine])[hPhe][dW][Ala(piperidin-4-yl)]Y(Cyclohexylmethyl))) : 631

Given item NCCNC(=O)O[C@@H]1C[C@H]2C(=O)N[C@@H](c3ccccc3)C(=O)N[C@H](Cc3c[nH]c4ccccc34)C(=O)N[C@@H](CC3CCNCC3)C(=O)N[C@@H](Cc3ccc(OCc4ccccc4)cc3)C(=O)N[C@@H](Cc3cccc(Br)c3)C(=O)N2C1 [Example 10] (cyclo([Hyp]([CO-Ethylenediamine])[Phg][dW][Ala(piperidin-4-yl)]Y(Bn)[Phe(3-Br)])) , the value recorded as its EC50 is 20

----------
- tested.on: SST2 (Homo sapiens, UniProt P30874)
- Sequence (P30874 whole entry): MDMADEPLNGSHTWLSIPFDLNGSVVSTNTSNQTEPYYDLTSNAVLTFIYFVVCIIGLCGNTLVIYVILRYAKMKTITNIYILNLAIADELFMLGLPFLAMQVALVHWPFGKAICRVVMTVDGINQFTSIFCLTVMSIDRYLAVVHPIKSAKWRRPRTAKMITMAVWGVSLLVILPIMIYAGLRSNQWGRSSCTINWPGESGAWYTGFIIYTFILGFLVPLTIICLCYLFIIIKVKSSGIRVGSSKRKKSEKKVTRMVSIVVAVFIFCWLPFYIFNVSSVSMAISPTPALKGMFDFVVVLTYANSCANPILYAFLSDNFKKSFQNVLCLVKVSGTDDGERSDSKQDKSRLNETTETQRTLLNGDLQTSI
- assay.notes: Hit Hunter cAMP XS+ assay, SST2 activation via Gi (reduction of forskolin-stimulated cAMP)
- Type: cell-based
- condition: reduction of forskolin-stimulated cAMP; 4-parameter logistic fit; read-out: SST2 pEC50 (converted)
*1 amine or outer side, *2 acyl side, *3 side chain or, on linkers, in order; H or OH if unused. Where a SMILES comes first, the peptide text is derived from it. Side-chain parts run from the residue outwards. [ ]: non-standard residue; d: D form. The star is where a group is joined. Ala(piperidin-4-yl) = O=C([C@H](CC1CCN([*:3])CC1)N[*:1])[*:2]; Ethylenediamine = C(CN[*:2])N[*:1]; Hyp = O=C(O)[C@@H]1C[C@@H](O)CN1; 3Pal = N[C@@H](Cc1cccnc1)C(=O)O; Phg = N[C@H](C(=O)O)c1ccccc1; CO = O=C([*:1])[*:2]; Bn = c1ccc(C*)cc1
quantity.measured: EC50 (nM)
Lab book: enter the figure in nM, no units written.

Given item NCCNC(=O)O[C@@H]1C[C@H]2C(=O)N[C@@H](c3ccccc3)C(=O)N[C@H](Cc3c[nH]c4ccccc34)C(=O)N[C@@H](CC3CCNCC3)C(=O)N[C@@H](Cc3ccc(OCc4ccccc4)cc3)C(=O)N[C@@H](Cc3cccnc3)C(=O)N2C1 [Example 11] (cyclo([3Pal][Hyp]([CO-Ethylenediamine])[Phg][dW][Ala(piperidin-4-yl)]Y(Bn))) , the value recorded as its EC50 is 200

----------
Each item that follows carries a reported Emax.
- tested.on: SST5 (Homo sapiens)
- Sequence (P35346 whole entry): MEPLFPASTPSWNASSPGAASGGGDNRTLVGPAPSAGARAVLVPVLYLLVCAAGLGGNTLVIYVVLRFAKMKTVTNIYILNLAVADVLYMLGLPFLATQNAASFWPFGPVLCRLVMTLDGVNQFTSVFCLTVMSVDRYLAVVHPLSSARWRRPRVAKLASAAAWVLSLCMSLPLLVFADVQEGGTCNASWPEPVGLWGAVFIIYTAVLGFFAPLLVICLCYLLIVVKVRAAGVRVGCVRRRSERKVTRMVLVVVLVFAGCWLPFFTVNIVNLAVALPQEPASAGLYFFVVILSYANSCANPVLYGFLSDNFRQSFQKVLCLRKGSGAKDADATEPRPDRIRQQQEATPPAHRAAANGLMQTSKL
- assay.notes: Hit Hunter cAMP XS+ assay, SST5 activation via Gi (reduction of forskolin-stimulated cAMP)
- Assay type: cell-based
- condition: read-out: SST5 (EMax)
*1 amine or outer side, *2 acyl side, *3 side chain or, on linkers, in order; H or OH if unused. Where a SMILES comes first, the peptide text is derived from it. Side-chain parts run from the residue outwards. [ ]: non-standard residue; d: D form. The star is where a group is joined. Ala(piperidin-4-yl) = O=C([C@H](CC1CCN([*:3])CC1)N[*:1])[*:2]; Ala(piperazin-1-yl) = N[C@@H](CN1CCNCC1)C(=O)O; Phe(3-Br) = N[C@@H](Cc1cccc(Br)c1)C(=O)O; Phe(4-Cl) = N[C@@H](Cc1ccc(Cl)cc1)C(=O)O; Ethylenediamine = C(CN[*:2])N[*:1]; Hyp = O=C(O)[C@@H]1C[C@@H](O)CN1; hPhe = N[C@@H](CCc1ccccc1)C(=O)O; Phg = N[C@H](C(=O)O)c1ccccc1; CO = O=C([*:1])[*:2]; Bn = c1ccc(C*)cc1
Lab book: enter the figure in %, no units written.

// below: answered compounds
1) NCCNC(=O)O[C@@H]1C[C@H]2C(=O)N[C@@H](CCc3ccccc3)C(=O)N[C@H](Cc3c[nH]c4ccccc34)C(=O)N[C@@H](CN3CCNCC3)C(=O)N[C@@H](Cc3ccc(OCc4ccccc4)cc3)C(=O)N[C@@H](Cc3ccc(Cl)cc3)C(=O)N2C1 [Example 51] (cyclo([Hyp]([CO-Ethylenediamine])[hPhe][dW][Ala(piperazin-1-yl)]Y(Bn)[Phe(4-Cl)])) : 106
2) NCCNC(=O)O[C@@H]1C[C@H]2C(=O)N[C@@H](CCc3ccccc3)C(=O)N[C@H](Cc3c[nH]c4ccccc34)C(=O)N[C@@H](CN3CCNCC3)C(=O)N[C@@H](Cc3ccc(OCc4ccccc4)cc3)C(=O)N3CCC[C@H]3C(=O)N2C1 [Example 37] (cyclo([Hyp]([CO-Ethylenediamine])[hPhe][dW][Ala(piperazin-1-yl)]Y(Bn)P)) : 108

Given item NCCNC(=O)O[C@@H]1C[C@H]2C(=O)N[C@@H](c3ccccc3)C(=O)N[C@H](Cc3c[nH]c4ccccc34)C(=O)N[C@@H](CC3CCNCC3)C(=O)N[C@@H](Cc3ccc(OCc4ccccc4)cc3)C(=O)N[C@@H](Cc3cccc(Br)c3)C(=O)N2C1 [Example 10] (cyclo([Hyp]([CO-Ethylenediamine])[Phg][dW][Ala(piperidin-4-yl)]Y(Bn)[Phe(3-Br)])) , the value recorded as its Emax is 98
